# Tested on: Ambrosia artemisiifolia
# MEASUREMENT_DESCRIPTION: Phytotoxicity against ragweed assessed as leaf necrotic lesions at 100 ug by detached leaf spot method
# Assay type: functional
Measured Activity by item
Your answer should be a number followed by the unit of measure.

Below: 5 molecules and their reported Activity.
MOLECULE: O=C(O)c1ccc(O)cc1 [PARABEN]
Activity: 15 mm2
//
MOLECULE: C[C@H]1Cc2cc(O)cc(O)c2C(=O)O1
Activity: 60 mm2
//
MOLECULE: CC(=O)Oc1ccc(C(=O)O)cc1CC=C(C)C
Activity: 38 mm2
//
MOLECULE: CC(=O)Oc1cc(O)c2c(c1)C[C@H](C)OC2=O
Activity: 30 mm2
//
MOLECULE: O=C1CC[C@@H](O)c2cccc(O)c21
Activity: 12 mm2

Attention now shifts to the item below.
The measured Activity associated with CC(C)=CCc1cc(C(=O)O)ccc1O reads 36 mm2
